Molecular target: T1, Human FGFR2 IIIb D1-3 (human)
T1 construct: Extracellular domains D1-3 with C-terminal tag, made in HEK293T; also called recombinant human FGFR2 IIIb; hFGFR2
T1 chain: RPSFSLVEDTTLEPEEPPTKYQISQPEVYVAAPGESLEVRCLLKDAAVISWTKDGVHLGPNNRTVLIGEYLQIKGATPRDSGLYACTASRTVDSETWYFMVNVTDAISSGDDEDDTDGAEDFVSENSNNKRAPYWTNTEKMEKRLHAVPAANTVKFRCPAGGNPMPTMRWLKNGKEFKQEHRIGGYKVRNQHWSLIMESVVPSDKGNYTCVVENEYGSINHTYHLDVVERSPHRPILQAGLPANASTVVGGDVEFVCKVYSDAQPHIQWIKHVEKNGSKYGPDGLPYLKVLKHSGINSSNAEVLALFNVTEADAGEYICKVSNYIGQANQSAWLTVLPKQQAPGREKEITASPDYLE
Experiment: SPR Biacore, IgG captured via anti-human Fc, soluble FGFR as analyte
The entries below are paired with their reported Kd.
Lab book: enter the figure in nM, no units written.

// known answers, use as guide
INSERT INTO assay_data (binder, measurement_units, recorded_measurement) VALUES
  ('mAb10164 (antibody, human IgG1, lambda, V domains shown, HuCAL human IgG1) VH: QVQLVESGGGLVKPGGSLRLSCAASGFTFSSYALSWVRQAPGKGLEWVGRIRSKIDGGTTDYAAPVKGRFTISRDDSKNTLYLQMNSLKTEDTAVYYCARDRSPSDSSAFAIWGQGTLVTVSS VL: DIELTQPPSVSVSPGQTASITCSGDNLGSQYVDWYQQKPGQAPVLVIYDDNDRPSGIPERFSGSNSGNTATLTISGTQAEDEADYYCQSWDSLSVVFGGGTKLTVLG', 'nM', 19),
  ('mAb12947 (antibody, human IgG1, kappa, V domains shown, HuCAL human IgG1) VH: QVQLVQSGAEVKKPGSSVKVSCKASGGTFSSYAISWVRQAPGQGLEWMGSIQPTAGPARYAQKFQGRVTITADESTSTAYMELSSLRSEDTAVYYCARASLYSVATGSYWKVYHPFDSWGQGTLVTVSS VL: DIQMTQSPSSLSASVGDRVTITCRASQDIYSYLAWYQQKPGKAPKLLIYDASSLQSGVPSRFSGSGSGTDFTLTISSLQPEDFATYYCQQADQYPVTFGQGTKVEIKR', 'nM', 2.7);

Return value of Kd for input mAb12433 (antibody, human IgG1, kappa, V domains shown, HuCAL human IgG1) VH: QVQLVQSGAEVKKPGESLKISCKGSGYSFTNYYIHWVRQMPGKGLEWMGAIYPDNSDTTYSPSFQGQVTISADKSISTAYLQWSSLKASDTAMYYCARGADIWGQGTLVTVSS VL: DIQMTQSPSSLSASVGDRVTITCRASQDIDPYLSNWYQQKPGKAPKLLIYDASNLQSGVPSRFSGSGSGTDFTLTISSLQPEDFATYYCQQTTSHPYTFGQGTKVEIKR , no commentary.
5.6

The origin of these recorded values is patent US20140308201A1.
